Conditions: in tert-amyl alcohol, 328.15 K
EXPERIMENTAL_ENDPOINT: solubility (mole fraction)

# SUBSTANCE_SMILES, MEASUREMENT
rows = [
    ("O=C1OC(=O)c2c(Cl)cccc21", 0.0288),
    ("O=C1OC(=O)c2cc(Cl)ccc21", 0.0823),
]

###

Conditions: in methanol, 323.15 K

# SUBSTANCE_SMILES, solubility (mole fraction)
records = [
    ("O=C1OC(=O)c2cc(Cl)ccc21", 0.309),
    ("O=C1OC(=O)c2c(Cl)cccc21", 0.144),
]

###

Details: in tert-amyl alcohol, 283.15 K

# SUBSTANCE_SMILES, solubility (mole fraction)
measured = [
    ("O=C1OC(=O)c2cc(Cl)ccc21", 0.00738),
    ("O=C1OC(=O)c2c(Cl)cccc21", 0.00423),
]

###

Settings: in cyclohexane, 328.15 K

# SUBSTANCE_SMILES, solubility (mole fraction)
measured = [
    ("O=C1OC(=O)c2c(Cl)cccc21", 0.00277),
    ("O=C1OC(=O)c2cc(Cl)ccc21", 0.00399),
]

###

Conditions: in acetonitrile, 303.15 K
In this section we review reported solubility (mole fraction) values for a set of compounds.

# SUBSTANCE_SMILES, solubility (mole fraction)
records = [
    ("O=C1OC(=O)c2c(Cl)cccc21", 0.123),
    ("O=C1OC(=O)c2cc(Cl)ccc21", 0.194),
]

###

Conditions: in methanol, 283.15 K
Quick reference for solubility (mole fraction) among some compounds
EXPERIMENTAL_ENDPOINT: solubility (mole fraction)

# SUBSTANCE_SMILES, EXPERIMENTAL_ENDPOINT, MEASUREMENT
data = [
    ("O=C1OC(=O)c2cc(Cl)ccc21", "solubility (mole fraction)", 0.0848),
    ("O=C1OC(=O)c2c(Cl)cccc21", "solubility (mole fraction)", 0.0637),
]

###

Details: in tert-amyl alcohol, 293.15 K
EXPERIMENTAL_ENDPOINT: solubility (mole fraction)

# SUBSTANCE_SMILES, EXPERIMENTAL_ENDPOINT, MEASUREMENT
measured = [
    ("O=C1OC(=O)c2c(Cl)cccc21", "solubility (mole fraction)", 0.00677),
    ("O=C1OC(=O)c2cc(Cl)ccc21", "solubility (mole fraction)", 0.0129),
]

###

The entries below come with measured solubility (mole fraction) values attached.
Conditions: in cyclohexane, 318.15 K

# SUBSTANCE_SMILES, solubility (mole fraction)
rows = [
    ("O=C1OC(=O)c2cc(Cl)ccc21", 0.00246),
    ("O=C1OC(=O)c2c(Cl)cccc21", 0.00176),
]

###

The reader will find reported solubility (mole fraction) values listed item by item below.
Settings: in tetrachloromethane, 283.15 K
EXPERIMENTAL_ENDPOINT: solubility (mole fraction)

# SUBSTANCE_SMILES, MEASUREMENT
data = [
    ("O=C1OC(=O)c2cc(Cl)ccc21", 0.00888),
    ("O=C1OC(=O)c2c(Cl)cccc21", 0.00307),
]

###

Here the recorded solubility (mole fraction) is given for each entry.
Details: in tetrachloromethane, 313.15 K

# SUBSTANCE_SMILES, solubility (mole fraction)
rows = [
    ("O=C1OC(=O)c2c(Cl)cccc21", 0.0104),
    ("O=C1OC(=O)c2cc(Cl)ccc21", 0.0212),
]

###

Settings: in methyl acetate, 328.15 K
Measured solubility (mole fraction) values are reported for all entries that follow.

# SUBSTANCE_SMILES, solubility (mole fraction)
rows = [
    ("O=C1OC(=O)c2cc(Cl)ccc21", 0.407),
    ("O=C1OC(=O)c2c(Cl)cccc21", 0.252),
]

###

Conditions: in tetrachloromethane, 308.15 K
Here, each record is paired with measured solubility (mole fraction) data.

# SUBSTANCE_SMILES, solubility (mole fraction)
data = [
    ("O=C1OC(=O)c2cc(Cl)ccc21", 0.0191),
    ("O=C1OC(=O)c2c(Cl)cccc21", 0.00873),
]

###

Conditions: in tetrachloromethane, 288.15 K
Measured solubility (mole fraction) values are reported for all entries that follow.

# SUBSTANCE_SMILES, solubility (mole fraction)
data = [
    ("O=C1OC(=O)c2cc(Cl)ccc21", 0.0103),
    ("O=C1OC(=O)c2c(Cl)cccc21", 0.004),
]

###

Listing of entries alongside the reported solubility (mole fraction).
Conditions: in methyl acetate, 298.15 K
EXPERIMENTAL_ENDPOINT: solubility (mole fraction)

# SUBSTANCE_SMILES, EXPERIMENTAL_ENDPOINT, MEASUREMENT
measured = [
    ("O=C1OC(=O)c2c(Cl)cccc21", "solubility (mole fraction)", 0.123),
    ("O=C1OC(=O)c2cc(Cl)ccc21", "solubility (mole fraction)", 0.216),
]

###

Details: in cyclohexane, 308.15 K
# solubility (mole fraction) annotations

# SUBSTANCE_SMILES, solubility (mole fraction)
records = [
    ("O=C1OC(=O)c2cc(Cl)ccc21", 0.00161),
    ("O=C1OC(=O)c2c(Cl)cccc21", 0.00108),
]

###

Conditions: in acetonitrile, 308.15 K

# SUBSTANCE_SMILES, solubility (mole fraction)
data = [
    ("O=C1OC(=O)c2c(Cl)cccc21", 0.142),
    ("O=C1OC(=O)c2cc(Cl)ccc21", 0.221),
]

###

Conditions: in acetonitrile, 328.15 K
# key: entry, value: solubility (mole fraction)

# SUBSTANCE_SMILES, solubility (mole fraction)
rows = [
    ("O=C1OC(=O)c2cc(Cl)ccc21", 0.331),
    ("O=C1OC(=O)c2c(Cl)cccc21", 0.263),
]

###

Conditions: in tert-amyl alcohol, 323.15 K
Form field: solubility (mole fraction) (one value per entry).

# SUBSTANCE_SMILES, solubility (mole fraction)
records = [
    ("O=C1OC(=O)c2cc(Cl)ccc21", 0.065),
    ("O=C1OC(=O)c2c(Cl)cccc21", 0.0228),
]

###

Parameter: solubility (mole fraction). Scope: all listed entries.
Details: in methanol, 313.15 K
EXPERIMENTAL_ENDPOINT: solubility (mole fraction)

# SUBSTANCE_SMILES, MEASUREMENT
data = [
    ("O=C1OC(=O)c2c(Cl)cccc21", 0.116),
    ("O=C1OC(=O)c2cc(Cl)ccc21", 0.228),
]

###

Details: in cyclohexane, 288.15 K
EXPERIMENTAL_ENDPOINT: solubility (mole fraction)

# SUBSTANCE_SMILES, MEASUREMENT
measured = [
    ("O=C1OC(=O)c2c(Cl)cccc21", 0.000507),
    ("O=C1OC(=O)c2cc(Cl)ccc21", 0.000684),
]

###

Conditions: in tetrachloromethane, 328.15 K
Listed here are molecules together with their documented solubility (mole fraction).

# SUBSTANCE_SMILES, solubility (mole fraction)
measured = [
    ("O=C1OC(=O)c2cc(Cl)ccc21", 0.0274),
    ("O=C1OC(=O)c2c(Cl)cccc21", 0.0177),
]

###

Settings: in acetonitrile, 318.15 K
Known solubility (mole fraction) of a selection of compounds

# SUBSTANCE_SMILES, solubility (mole fraction)
records = [
    ("O=C1OC(=O)c2cc(Cl)ccc21", 0.277),
    ("O=C1OC(=O)c2c(Cl)cccc21", 0.193),
]

###

Details: in tert-amyl alcohol, 288.15 K
Entries and their solubility (mole fraction)

# SUBSTANCE_SMILES, solubility (mole fraction)
data = [
    ("O=C1OC(=O)c2cc(Cl)ccc21", 0.00942),
    ("O=C1OC(=O)c2c(Cl)cccc21", 0.00548),
]

###

Conditions: in cyclohexane, 293.15 K
Listed below: solubility (mole fraction) values for each entry.

# SUBSTANCE_SMILES, solubility (mole fraction)
measured = [
    ("O=C1OC(=O)c2cc(Cl)ccc21", 0.000895),
    ("O=C1OC(=O)c2c(Cl)cccc21", 0.000554),
]

###

This section presents compounds with their documented solubility (mole fraction) values.
Details: in tetrachloromethane, 293.15 K

# SUBSTANCE_SMILES, solubility (mole fraction)
measured = [
    ("O=C1OC(=O)c2c(Cl)cccc21", 0.00497),
    ("O=C1OC(=O)c2cc(Cl)ccc21", 0.0128),
]

###

Settings: in methanol, 288.15 K
EXPERIMENTAL_ENDPOINT: solubility (mole fraction)

# SUBSTANCE_SMILES, EXPERIMENTAL_ENDPOINT, MEASUREMENT
measured = [
    ("O=C1OC(=O)c2cc(Cl)ccc21", "solubility (mole fraction)", 0.0944),
    ("O=C1OC(=O)c2c(Cl)cccc21", "solubility (mole fraction)", 0.0698),
]
